target: Polyunsaturated fatty acid lipoxygenase ALOX15 (Homo sapiens); experiment: Inhibition of human 15-hLO1 at 40 uM by HTP assay
readout.kind: inhibition (%)

Oc1c(Cl)cc(C(c2cc(Cl)c(O)c(Cl)c2)C(c2cc(Cl)c(O)c(Cl)c2)c2cc(Cl)c(O)c(Cl)c2)cc1Cl
37

a. Oc1cccc2ccc(SSc3ccc4cccc(O)c4n3)nc12
b. O=C(O)c1cc(C(=O)C(=O)c2cc(C(=O)O)c(O)c3ccccc23)c2ccccc2c1O
c. COc1c(O)cc2oc3cc(O)c(CC=C(C)C)c(O)c3c(=O)c2c1CC=C(C)C
Sort low-to-high on inhibition, please. Sort and list the labels as requested.
b, c, a

###

molecular target: Polyunsaturated fatty acid lipoxygenase ALOX12 (Homo sapiens, UniProt P18054)
readout.kind: Ki (µM)
Express it in µM; write the number only.

C[C@H](c1nccs1)N(C)C(=O)[C@H](C[C@H](C)C(Cl)(Cl)Cl)NC(=O)C[C@H](C)C(Cl)(Cl)Cl [NEODYSIDENIN]
17

Attention now shifts to the item below.
Return Ki measured with Polyunsaturated fatty acid lipoxygenase ALOX12 (Homo sapiens, UniProt P18054) given this molecule: C[C@H](NC(=O)[C@H](C[C@H](C)C(Cl)(Cl)Cl)N(C)C(=O)C[C@H](C)C(Cl)(Cl)Cl)c1nccs1 [DYSIDENIN]
9

###

target: Polyunsaturated fatty acid lipoxygenase ALOX15 (Homo sapiens, UniProt P16050)
Sequence (P16050 whole entry): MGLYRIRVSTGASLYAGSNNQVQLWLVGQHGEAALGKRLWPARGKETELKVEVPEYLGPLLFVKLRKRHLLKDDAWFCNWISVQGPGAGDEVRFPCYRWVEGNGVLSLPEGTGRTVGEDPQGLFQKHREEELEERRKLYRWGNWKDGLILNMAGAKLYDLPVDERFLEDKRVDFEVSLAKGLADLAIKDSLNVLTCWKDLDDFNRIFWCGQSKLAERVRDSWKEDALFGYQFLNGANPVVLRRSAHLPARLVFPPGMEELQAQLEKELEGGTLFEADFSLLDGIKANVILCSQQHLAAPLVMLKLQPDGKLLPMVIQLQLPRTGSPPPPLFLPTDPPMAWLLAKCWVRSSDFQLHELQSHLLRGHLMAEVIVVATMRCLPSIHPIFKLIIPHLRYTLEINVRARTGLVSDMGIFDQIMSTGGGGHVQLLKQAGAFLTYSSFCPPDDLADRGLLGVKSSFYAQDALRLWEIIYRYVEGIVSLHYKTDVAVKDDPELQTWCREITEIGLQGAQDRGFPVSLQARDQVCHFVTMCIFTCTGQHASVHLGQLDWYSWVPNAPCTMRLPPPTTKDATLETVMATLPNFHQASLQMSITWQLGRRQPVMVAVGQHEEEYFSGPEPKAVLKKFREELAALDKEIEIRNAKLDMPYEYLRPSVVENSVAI
readout.kind: Ki (µM)
Give a bare numeral; the unit µM is implied.

Which Ki is listed for C[C@H](NC(=O)[C@H](C[C@H](C)C(Cl)(Cl)Cl)N(C)C(=O)C[C@H](C)C(Cl)(Cl)Cl)c1nccs1 ?
8

###

target: Polyunsaturated fatty acid lipoxygenase ALOX12 (Homo sapiens, UniProt P18054); experiment: Inhibition of human 12-hLO
readout.kind: pIC50
Value format note: pIC50 is -log10 of concentration (mol/L); just state the number.

# query: pIC50 | item Oc1c(Cl)cc(C(c2cc(Cl)c(O)c(Cl)c2)C(c2cc(Cl)c(O)c(Cl)c2)c2cc(Cl)c(O)c(Cl)c2)cc1Cl | system: Polyunsaturated fatty acid lipoxygenase ALOX12 (Homo sapiens, UniProt P18054)
6.68

###

Target: Polyunsaturated fatty acid lipoxygenase ALOX12 (Homo sapiens) (UniProt P18054)
Sequence (whole entry): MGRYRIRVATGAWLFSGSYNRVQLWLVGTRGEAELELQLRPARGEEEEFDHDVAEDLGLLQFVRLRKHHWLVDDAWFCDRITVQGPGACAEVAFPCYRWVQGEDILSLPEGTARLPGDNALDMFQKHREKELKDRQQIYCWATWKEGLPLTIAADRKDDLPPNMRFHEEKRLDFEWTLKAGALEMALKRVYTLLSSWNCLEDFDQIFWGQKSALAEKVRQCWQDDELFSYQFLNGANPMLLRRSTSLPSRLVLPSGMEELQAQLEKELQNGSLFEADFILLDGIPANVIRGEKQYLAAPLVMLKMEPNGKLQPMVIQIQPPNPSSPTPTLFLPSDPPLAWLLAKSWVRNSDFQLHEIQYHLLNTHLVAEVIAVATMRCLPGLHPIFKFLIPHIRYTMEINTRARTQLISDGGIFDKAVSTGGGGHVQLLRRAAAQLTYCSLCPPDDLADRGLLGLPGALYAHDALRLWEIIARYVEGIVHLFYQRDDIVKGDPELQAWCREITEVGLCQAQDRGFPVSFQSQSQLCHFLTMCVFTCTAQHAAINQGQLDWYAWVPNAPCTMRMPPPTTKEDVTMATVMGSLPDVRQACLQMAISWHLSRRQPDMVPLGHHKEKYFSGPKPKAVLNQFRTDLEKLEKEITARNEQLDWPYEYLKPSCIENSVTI
Experiment: Inhibition of human 12-hLO at 10 uM by MI assay
readout.kind: inhibition (%)

Worked examples follow.
O=C(O)c1cc(C(=O)C(=O)c2cc(C(=O)O)c(O)c3ccccc23)c2ccccc2c1O
88
Oc1c(Cl)cc(C(c2cc(Cl)c(O)c(Cl)c2)C(c2cc(Cl)c(O)c(Cl)c2)c2cc(Cl)c(O)c(Cl)c2)cc1Cl
100

a. COc1c(O)cc2oc3cc(O)c(CC=C(C)C)c(O)c3c(=O)c2c1CC=C(C)C
b. Oc1cccc2ccc(SSc3ccc4cccc(O)c4n3)nc12
Compare a and b by numeric inhibition and name the larger one. Output the label that corresponds to your choice.
a
(a: 100%, b: 0%)

###

Biological target: Polyunsaturated fatty acid lipoxygenase ALOX12 (Homo sapiens) (UniProt P18054)
Sequence (whole entry): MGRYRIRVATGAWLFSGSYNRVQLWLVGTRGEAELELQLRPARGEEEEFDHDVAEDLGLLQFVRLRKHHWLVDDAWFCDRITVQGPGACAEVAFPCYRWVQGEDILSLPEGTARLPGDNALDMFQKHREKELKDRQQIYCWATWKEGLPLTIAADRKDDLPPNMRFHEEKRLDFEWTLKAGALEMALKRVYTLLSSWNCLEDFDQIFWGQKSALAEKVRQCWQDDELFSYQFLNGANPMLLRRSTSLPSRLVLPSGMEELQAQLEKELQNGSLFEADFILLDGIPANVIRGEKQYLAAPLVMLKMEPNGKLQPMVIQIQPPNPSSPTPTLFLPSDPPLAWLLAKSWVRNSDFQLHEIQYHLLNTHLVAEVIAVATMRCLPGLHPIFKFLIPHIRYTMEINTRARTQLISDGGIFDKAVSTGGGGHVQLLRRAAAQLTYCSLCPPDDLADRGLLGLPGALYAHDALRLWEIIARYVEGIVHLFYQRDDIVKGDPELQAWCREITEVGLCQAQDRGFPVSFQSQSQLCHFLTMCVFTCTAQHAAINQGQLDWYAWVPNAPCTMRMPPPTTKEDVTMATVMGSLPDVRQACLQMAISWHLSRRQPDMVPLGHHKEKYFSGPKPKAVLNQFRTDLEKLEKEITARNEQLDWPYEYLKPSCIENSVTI
Assay: Inhibition of human 12-hLO at 40 uM by HTP assay
readout.kind: inhibition (%)

Oc1c(Cl)cc(C(c2cc(Cl)c(O)c(Cl)c2)C(c2cc(Cl)c(O)c(Cl)c2)c2cc(Cl)c(O)c(Cl)c2)cc1Cl
70

P. Oc1cccc2ccc(SSc3ccc4cccc(O)c4n3)nc12
Q. COc1c(O)cc2oc3cc(O)c(CC=C(C)C)c(O)c3c(=O)c2c1CC=C(C)C [MANGOSTIN]
Compare P and Q by numeric inhibition and name the larger one. State the label of the item chosen.
P
(P: 71%, Q: 47%)

###

biological target: Polyunsaturated fatty acid lipoxygenase ALOX15 (Homo sapiens) (UniProt P16050); test: Inhibition of human 15-hLO1 at 10 uM by MI assay
Sequence (P16050 whole entry): as the sequence (P16050 whole entry) above
readout.kind: inhibition (%)

Please review the following examples before continuing.
Oc1cccc2ccc(SSc3ccc4cccc(O)c4n3)nc12
0
Oc1c(Cl)cc(C(c2cc(Cl)c(O)c(Cl)c2)C(c2cc(Cl)c(O)c(Cl)c2)c2cc(Cl)c(O)c(Cl)c2)cc1Cl
36

I. O=C(O)c1cc(C(=O)C(=O)c2cc(C(=O)O)c(O)c3ccccc23)c2ccccc2c1O
II. COc1c(O)cc2oc3cc(O)c(CC=C(C)C)c(O)c3c(=O)c2c1CC=C(C)C [MANGOSTIN]
Among I and II , whose measured inhibition is the smaller figure? Kindly state the label of the option you pick.
I
